- ASSAYED TARGET: PTPN6/SHP1 (Homo sapiens, UniProt P29350)
- Construct: purchased Recation Biology Inc
- Sequence (P29350 whole entry): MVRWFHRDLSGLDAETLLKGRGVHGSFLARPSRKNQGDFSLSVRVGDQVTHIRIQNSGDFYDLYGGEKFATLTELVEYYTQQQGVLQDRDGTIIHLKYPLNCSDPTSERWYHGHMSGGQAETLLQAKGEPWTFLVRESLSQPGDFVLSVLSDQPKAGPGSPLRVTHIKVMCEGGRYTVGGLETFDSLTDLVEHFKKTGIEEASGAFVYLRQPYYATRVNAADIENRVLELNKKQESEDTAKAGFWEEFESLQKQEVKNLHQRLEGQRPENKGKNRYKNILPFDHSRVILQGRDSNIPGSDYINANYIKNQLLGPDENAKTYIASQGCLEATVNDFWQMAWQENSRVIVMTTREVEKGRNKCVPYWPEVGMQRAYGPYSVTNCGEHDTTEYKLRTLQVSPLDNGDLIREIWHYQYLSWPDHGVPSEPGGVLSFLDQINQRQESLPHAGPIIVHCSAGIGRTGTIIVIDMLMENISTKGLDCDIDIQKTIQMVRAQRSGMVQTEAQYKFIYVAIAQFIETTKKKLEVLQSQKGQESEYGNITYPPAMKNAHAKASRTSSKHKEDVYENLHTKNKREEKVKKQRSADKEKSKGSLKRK
- ASSAY DETAILS: Phosphatase panel, DiFMUP fluorescence assay
- Format: biochemical
- CONDITION SET: Table 19A; read-out: inhibitory activity PTPN6/SHP1
pIC50: −log10 of the molar value.

COMPOUND | pIC50
CC(CCC[C@@H](C)[C@H]1CCC2C3C(CC[C@@]21C)[C@@]1(C)CC[C@H](NCCCNCCCCN)C[C@@H]1C[C@H]3O)C(=O)O (single isomer, unassigned) [ENT-06] | < 4.00
CCc1oc2cc(S(=O)(=O)Nc3ccc(S(=O)(=O)Nc4nccs4)cc3)ccc2c1C(=O)c1cc(Br)c(O)c(Br)c1 [PTP1B Inhibitor, reference compound] | 5.44
CC(CCC[C@@H](C)[C@H]1CCC2C3C(CC[C@@]21C)[C@@]1(C)CC[C@H](NCCCNCCCCNCCCN)C[C@@H]1C[C@H]3O)C(=O)O (single isomer, unassigned) [ENT-03] | < 4.00

Cited source for all entries: patent US20250228873A1
